System: 22RV1 (Prostate Carcinoma);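 note: after 72 h of two-drug dosing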
Test: Bliss excess, mean over the matrix (fraction); higher = more synergy
Listed below: Bliss excess values for each entry.
Give the value as a plain number.

Reported Bliss excess, compound CN(CCO)CC[C@H](CSc1ccccc1)Nc1ccc(S(=O)(=O)NC(=O)c2ccc(N3CCC([C@@H](O)c4ccccc4-c4ccc(Cl)cc4)CC3)cc2)cc1S(=O)(=O)C(F)(F)F [AZD4320] + CC(=O)O[C@H]1C(=O)[C@@]2(C)[C@H]([C@H](OC(=O)c3ccccc3)[C@]3(O)C[C@H](OC(=O)[C@H](O)[C@@H](NC(=O)c4ccccc4)c4ccccc4)C(C)=C1C3(C)C)[C@]1(OC(C)=O)CO[C@@H]1C[C@@H]2O [Paclitaxel] (first compound max 1 µM, 7x7, partner max 3 µM) : ____
-0.0017

Consider next the compound C[C@@H](c1ccc2nccn2c1)n1nnc2ncc(-c3cnn(C)c3)nc21 [Savolitinib] + CC1(C)CCC(CN2CCN(c3ccc(C(=O)NS(=O)(=O)c4ccc(NCC5CCOCC5)c([N+](=O)[O-])c4)c(Oc4cnc5[nH]ccc5c4)c3)CC2)=C(c2ccc(Cl)cc2)C1 [Venetoclax] (first compound max 1 µM, 7x7, partner max 1 µM) in the same way.
-0.0952

Consider next the compound Cc1cc2ncnn2cc1Nc1ncc2c(n1)n(C1CCOCC1)c(=O)n2C [AZD7648] + C=CCn1c(=O)c2cnc(Nc3ccc(N4CCN(C)CC4)cc3)nc2n1-c1cccc(C(C)(C)O)n1 [AZD1775] (first compound max 10 µM, partner max 1 µM) in the same way.
-0.0214

====

Test system: CA46 (Burkitt's Lymphoma)
Experiment: combination Emax (second highest fraction inhibited in the dose matrix, 72 h); higher = more inhibition; extreme values may be limits of the assay
measurement.kind: combination Emax
Give the value as a plain number.

compound	combination Emax
Cc1c2c(nn1C)CSCc1cc(n(C)n1)CSc1cc(c3ccccc3c1)OCCCc1c(C(=O)O)n(C)c3c-2c(Cl)ccc13 [AZD5991] + C=CCn1c(=O)c2cnc(Nc3ccc(N4CCN(C)CC4)cc3)nc2n1-c1cccc(C(C)(C)O)n1 [AZD1775] (first compound max 1 µM, partner max 1 µM)	0.633

Reported combination Emax, compound COc1nnc2ccc(N3CCC(c4ccc(OCCN5CCN(C)C(=O)[C@H]5C)cc4)CC3)nn12 [AZD5153] + C[C@@H]1COCCN1C2=NC(=NC(=C2)C3(CC3)[S@](=N)(=O)C)C4=C5C=CNC5=NC=C4 [AZD6738] (first compound max 1 µM, 7x7, partner max 10 µM) : ____
0.754

====

Listed below: combination Emax values for each entry.
Tested on: RH-41 (Rhabdomyosarcoma)
Assay: combination Emax (second highest fraction inhibited in the dose matrix, 72 h); higher = more inhibition; extreme values may be limits of the assay

Here are 3 compounds together with their reported answers.
compound	measurement.kind	result
COc1cccc(OCCCN)c1-c1cc(Nc2cnc(C#N)cn2)n[nH]1 [Prexasertib] + Cc1cc2ncnn2cc1Nc1ncc2c(n1)n(C1CCOCC1)c(=O)n2C [AZD7648] (first compound max 1 µM, 7x7, partner max 10 µM)	combination Emax	0.964
COc1cc2ncnc(Nc3ccc(F)c(Cl)c3)c2cc1OCCCN1CCOCC1 [Gefitinib] + CC(C)n1c(=O)n(C)c2cnc3cc(F)c(-c4ccc(OCCCN5CCCCC5)nc4)cc3c21 [AZD1390] (first compound max 10 µM, 7x7, partner max 0.3 µM)	combination Emax	0.147
CN(C)CCCOc1ccc(-c2ccc3ncc4c(c3c2)n(C2CCOCC2)c(=O)n4C)cn1 [AZD0156] + C[C@@H]1COCCN1C2=NC(=NC(=C2)C3(CC3)[S@](=N)(=O)C)C4=C5C=CNC5=NC=C4 [AZD6738] (first compound max 1 µM, 7x7, partner max 10 µM)	combination Emax	0.874

In the following, a different compound is considered.
GET /values?readout=combination Emax&system=RH-41 (Rhabdomyosarcoma)&item= CC(=O)c1c(C)c2cnc(Nc3ccc(N4CCNCC4)cn3)nc2n(C2CCCC2)c1=O [Palbociclib] + Cc1c2c(nn1C)CSCc1cc(n(C)n1)CSc1cc(c3ccccc3c1)OCCCc1c(C(=O)O)n(C)c3c-2c(Cl)ccc13 [AZD5991] (first compound max 10 µM, 7x7, partner max 1 µM)
0.911
